- MEASUREMENT DESCRIPTION: inhibitors of hydroxyurea-induced Chk1 phosphorylation, primary screen, imaging, HeLa, phospho-Chk1 nuclear intensity (AID 1187); note: test concentration not given here
- CONDITION CONTEXT: hydroxyurea-induced phospho-Chk1 immunofluorescence imaging, higher = more signal
Measured z-score, listed per entry for reference.
// response body must contain only the number

Study these solved cases before continuing.
[
  {
    "COMPOUND": "[N-]=[N+]=Nc1ccccc1C[C@@]1(C(=O)O)N=C(c2ccc(OCCCO)cc2)O[C@@H]1c1ccccc1",
    "z-score": 0.149
  },
  {
    "COMPOUND": "COC(=O)[C@@]1(Cc2ccc(OC)cc2)[C@H]2c3cc(C(=O)N(C)C)n(CCc4c[nH]c5ccc(O)cc45)c3C[C@H]2CN1C(=O)c1ccccc1",
    "z-score": -0.541
  },
  {
    "COMPOUND": "O=c1cccc(-c2cccc(Cl)c2)o1",
    "z-score": -0.411
  }
]

Query: Which z-score reading was recorded for the compound `O=c1cccc(-c2ccc(C(F)(F)F)cc2)o1` ?
Reply: 0.197

Query: // query z-score value for entry `[N-]=[N+]=NCc1ccccc1[C@H]1OC(c2ccc(OCCCO)cc2)=N[C@@]1(CCS(=O)(=O)c1ccccc1)C(N)=O`
Reply: 0.0372

Query: What does the data say about its z-score? Entry: `CN(C)CCCNC(=O)[C@@H]1c2ccccc2C(=O)N(CC23CC4CC(CC(C4)C2)C3)[C@H]1c1ccc(CO)cc1`
Reply: 1.05

Query: What does the data say about its z-score? Entry: `COc1ccccc1CN1C(=O)c2ccccc2[C@](Cc2ccccc2I)(C(=O)NC(C)C)[C@@H]1c1ccc(CO)cc1`
Reply: -0.471

Query: Dear colleague, I am looking for the recorded z-score of the following compound: C=CCC(OC(C)=O)[C@@H]1[C@@H](N(Cc2ccc(-c3ccccc3)cc2)C(=O)c2cccc3ccccc23)c2cc(OCCCO)ccc2N1C(=O)Cc1ccc2ccccc2c1 (stereo partly drawn)
Reply: -0.493

###

- MEASUREMENT DESCRIPTION: P. aeruginosa biofilm formation inhibitors, primary screen, strain PAO1, LB-PBS medium, absorbance 600 nm (AID 1176); note: test concentration not given here
- CONDITION CONTEXT: P. aeruginosa PAO1 growth/biofilm, A600, 12 h; higher = more signal
Mark MET for reported z-score of 0.2 or greater; mark NOT MET for anything smaller.

[
  {
    "COMPOUND": "CC1CC/C=C\\[C@H]2OC34C=CCN(c5ccc6ccccc6c5)C(=O)[C@H]3N(C(CO)C(C)C)C(=O)[C@@H]4C2C(=O)O1 (some centres not stated)",
    "CLASS NAME": "NOT MET"
  },
  {
    "COMPOUND": "Cc1ccc(S[C@]2(C(=O)NCCN3CCOCC3)CC(=O)N(Cc3ccccc3C(F)(F)F)[C@@H]2c2ccc(CO)cc2I)cc1",
    "CLASS NAME": "MET"
  },
  {
    "COMPOUND": "C[C@@H]1ON(c2ccc(C(=O)OC(C)(C)C)cc2)[C@H](c2ccc(Br)cc2)[C@H]1C(=O)N1C(=O)OC[C@H]1Cc1ccccc1",
    "CLASS NAME": "MET"
  },
  {
    "COMPOUND": "C#CCNC(=O)[C@H](Cc1ccccc1)NC(=O)[C@@H](N=[N+]=[N-])C(C)C",
    "CLASS NAME": "NOT MET"
  },
  {
    "COMPOUND": "COc1ccc([Si](C)(C)[C@H]2[C@H](CCO)O[C@@]3(C(=O)N(Cc4cccc(N5CCCCC5=O)c4)c4ccccc43)[C@@H]2C)cc1",
    "CLASS NAME": "MET"
  }
]

Query: Textbook exercise: given the entry `CN(C)C(=O)[C@]1(CCC(=O)OC(C)(C)C)N=C(c2ccc(OCCCO)cc2)O[C@@H]1c1ccccc1` , state whether its z-score is greater than or equal to 0.2.
Reply: MET

###

- TARGET SYSTEM: Follistatin (Homo sapiens) (UniProt P19883)
- Sequence (P19883 whole entry, looked up): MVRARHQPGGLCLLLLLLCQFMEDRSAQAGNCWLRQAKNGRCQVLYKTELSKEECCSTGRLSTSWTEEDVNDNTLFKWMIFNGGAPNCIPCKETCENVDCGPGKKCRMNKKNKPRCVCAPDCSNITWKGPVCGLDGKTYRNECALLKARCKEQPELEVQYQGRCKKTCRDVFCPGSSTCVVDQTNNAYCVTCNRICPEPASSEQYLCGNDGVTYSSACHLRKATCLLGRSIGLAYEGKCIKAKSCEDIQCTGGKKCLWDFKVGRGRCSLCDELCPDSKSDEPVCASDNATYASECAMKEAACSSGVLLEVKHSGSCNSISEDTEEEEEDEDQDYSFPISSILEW
- MEASUREMENT DESCRIPTION: follistatin binders on small-molecule microarrays, primary screen, biochemical, small-molecule microarray, 635/667 nm fluorescence (AID 1132)
- CONDITION CONTEXT: FST binding, 635 nm fluorescence, higher = more signal
ENDPOINT: composite z-score
The answer should be a number; do not append a unit.

[
  {
    "COMPOUND": "C=CC[C@]12N=C(c3ccc(OCCCO)cc3)O[C@H]1c1ccccc1N(C)C2=O",
    "ENDPOINT": "composite z-score",
    "OBSERVED RESULT": 1.46
  },
  {
    "COMPOUND": "O=C(O)[C@H]1C[C@H]2C(=O)N3CCC[C@H]3C(=O)N2[C@H]1c1cccc(OCCO)c1",
    "ENDPOINT": "composite z-score",
    "OBSERVED RESULT": 1.32
  },
  {
    "COMPOUND": "CC(C)N1CC=CC23O[C@@H]4C=CCCOC(=O)C4[C@H]2C(=O)N(CCO)[C@@H]3C1=O (stereo partly drawn)",
    "ENDPOINT": "composite z-score",
    "OBSERVED RESULT": -0.194
  }
]

Query: So what does the record say about composite z-score for `O=C(O)[C@]1(Cc2ccccc2)N=C(c2ccc(OCCCO)cc2)O[C@@H]1c1ccccc1` ?
Reply: -0.431

Query: Which composite z-score reading was recorded for the compound [N-]=[N+]=NCc1ccccc1C[C@]1(C(=O)NCC(O)CO)N=C(c2ccc(OCCCO)cc2)O[C@H]1c1ccccc1CN=[N+]=[N-] (stereo partly drawn) ?
Reply: 1.3

Query: # query: composite z-score of entry `COc1ccc([Si](C)(C)[C@H]2[C@H](CCn3cc([C@H](O)c4ccccc4)nn3)O[C@@]3(C(=O)N(Cc4cccc(N5C(=O)c6cccc7cccc5c67)c4)c4ccccc43)[C@@H]2C)cc1`
Reply: -1.64

Query: Sample C=C1C2CC3C(=C4C(CO[C@@H]4[C@H]4CCCN4S(=O)(=O)c4ccccc4[N+](=O)[O-])C4C(=O)N(C)C(=O)C34)CC2C(=O)N1C (stereo partly drawn) — what was its composite z-score?
Reply: 0.482

Query: Tell me the measured composite z-score of `O=C(CS)NCCCCCCNC(=O)[C@@H]1C[C@@H]2C(=O)N3CCC[C@H]3C(=O)N2[C@@H]1c1cccc(OCCO)c1` , please.
Reply: 1.1

Query: Look up composite z-score: `CC(C)CN1C(=O)[C@@]2(Cc3ccccc31)c1ccccc1C(=O)N(Cc1ccccc1C(F)(F)F)[C@H]2c1ccc(CO)cc1`
Reply: -0.596

###

- TARGET SYSTEM: E3 ubiquitin-protein ligase XIAP (Homo sapiens) (UniProt P98170)
- Sequence (P98170 whole entry, looked up): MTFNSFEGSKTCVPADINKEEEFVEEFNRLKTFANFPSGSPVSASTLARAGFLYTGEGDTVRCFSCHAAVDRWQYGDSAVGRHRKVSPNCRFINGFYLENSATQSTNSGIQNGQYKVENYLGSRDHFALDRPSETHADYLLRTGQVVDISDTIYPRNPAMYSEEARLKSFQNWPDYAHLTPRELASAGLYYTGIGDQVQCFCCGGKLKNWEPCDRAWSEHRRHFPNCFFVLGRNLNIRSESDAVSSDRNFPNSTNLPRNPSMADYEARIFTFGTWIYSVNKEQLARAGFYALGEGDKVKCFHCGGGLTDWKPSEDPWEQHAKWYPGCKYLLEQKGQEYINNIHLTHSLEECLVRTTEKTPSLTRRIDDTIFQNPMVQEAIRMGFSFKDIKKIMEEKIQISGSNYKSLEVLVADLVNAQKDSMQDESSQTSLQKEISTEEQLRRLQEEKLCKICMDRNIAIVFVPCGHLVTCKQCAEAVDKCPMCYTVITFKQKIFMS
- MEASUREMENT DESCRIPTION: XIAP binders, primary screen, biophysical, small-molecule microarray, fluorescence 635 nm (AID 1181);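 note: score merges 667 nm emission and signal to noise over triplicate slides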
- CONDITION CONTEXT: small-molecule microarray binding, higher = more signal
Entries annotated with measured composite z-score
Answer as a number with no unit attached.

[
  {
    "COMPOUND": "O=C1C[C@]2(c3ccc([N+](=O)[O-])cc3)C(=O)N(Cc3ccccc3)c3cc(CO)ccc3[C@H]2N1CC12CC3CC(CC(C3)C1)C2",
    "ENDPOINT": "composite z-score",
    "OBSERVED RESULT": -0.133
  },
  {
    "COMPOUND": "C=C(COC)/C(=C/C[C@@H](OC(=O)c1ccncc1)c1ccc(CO)o1)c1cnc2ccccc2c1",
    "ENDPOINT": "composite z-score",
    "OBSERVED RESULT": 0.641
  },
  {
    "COMPOUND": "COc1ccc(NN2C(C(O)c3ccccn3)C=CC3C(=O)N(C4CCCCC4)C(=O)C32)cc1 (stereo not drawn)",
    "ENDPOINT": "composite z-score",
    "OBSERVED RESULT": -0.308
  }
]

Query: Item under review: `COC(=O)[C@]1(CCS(=O)(=O)c2ccccc2)N=C(c2ccc(OCCCO)cc2)O[C@@H]1c1ccccc1CN=[N+]=[N-]` . Reported composite z-score?
Reply: -0.0062

Query: Suppose we examine the compound `O=C(O)[C@]1(Cc2ccccc2)N=C(c2ccc(OCCCO)cc2)O[C@@H]1c1ccccc1` ; what composite z-score value has been reported?
Reply: -0.258

Query: Fill blank: measured composite z-score of the compound `O=c1cccc(-c2ccc(C(F)(F)F)cc2)o1` is ____.
Reply: 0.0535

Query: Value lookup for composite z-score; key = `Cc1c(NC(=O)/C(C#N)=C/C=C/c2ccccc2[N+](=O)[O-])c(=O)n(-c2ccccc2)n1C`
Reply: -0.0172

Query: Which composite z-score value belongs to `CC(C)CNC(=O)[C@@H]1c2ccccc2C(=O)N(Cc2cc(F)cc(C(F)(F)F)c2)[C@H]1c1ccc(CO)cc1` ?
Reply: 0.0651
